Assay: soluble on expression in E. coli; label from the status in PepcDB or PDB records
ENDPOINT_LABEL: soluble on expression in E. coli

MONOMER_SEQUENCE	ENDPOINT_VALUE
MLTYETWEENETKGALSVLSWAYKEYKSEIVYACSFGVEGMVLLDLINQVNPSAKVVFLDTNVHFQETYELIQKVRERFPSLNIIEKQPKLTLDEQDKLHGDKLWESNPNLCCKIRKILPLEESLANEKAWISGLRREQSETRKHTKFINQDHRFQSIKVCPLIHWTWKEVWRYVYKHSLPYNSLHDIGYPSIGCEKCTLPVGEGGDSRDGRWAGKVKTECGLHYQ	not soluble
REGVFRAERQRKAGELIISREPLTGLDDAARSQALLALVRRKGLELLPWTPELRQWQARVALLRSLDIDKSATSEWPDLSDAQLLATLENWLMPYLGKVT	not soluble
MGHHHHHHSHDGQLFCKKDYWARYGESCHGCSEQITKGLVMVAGELKYHPECFICLTCGTFIGDGDTYTLVEHSKLYCGHCYYQTVVTPVIEQILPDSPGSHLPHTVTLVSIPASSHGKRGLSVSIDPPHGPPGCGTEHSHTVRVQGVDPGCMSPDVKNSIHVGDRILEINGTPIRNVPLDEIDLLIQETSRLLQLTLEHDP	not soluble
PLENQELTPLFGQPDWFLGILPSQAGNLKVLDTARWVMPERYRDDYRDGLKYVISVQGYEWGLAVHQVSRSIRLDPAEVKWRSQRSQRPWLAGTVIEH	not soluble
MSLNFIDEFRDKESILALKKLIEQELKNPINIMEICGGHTHSIMKYALPSILPKEINFIHGPGCPVCVMPRVRIDTAIKLASMKDTIFCTLGDLLRVPGSEISLLDLRAKGADVRALYSPLEVLEIAKQNLNKNIIFFAIGFETTTPMSALLLQKVIEEKINNVFFHINHITVPAPVEAIMNDENVKINAFLGPSHVSVITGYGIYEPLAAKFKTPIAVSGFEPVDILESVLNIIKQSNEGTFKVYNQYKRAVSKEGNVKAQNLVKKYFRVCDFEFRGLGLIKNGGLELKEEFSAYDASKKFDCTVQSKNESKACICGQILRGLAKPYDCKVFGKACTPRSPIGSCMVSGEGACAAYYKYSKVNAEGHHHHHH	soluble
MAHHHHHHMIEETSFSNLKWEHDLFSIGDLHGDMDAFLKILLNEKMIDKNYNVIRENVLIVITGDVLDPSYDDINILFFIEEYNEKGKALNSKILMVLGNHEVKNMCLEFNKVKKNVEKYQNRNDMFPKNEVIYNILVNKPFVLRVNEMVFSHAGVLPFYASYGIDYINKEGKNEIENNCKLLFNKRKRKEEFCIACDYGPTLNRYFSFVNDGVFKKWMVCSTLNKSLNLLSSRRMIVGHTVQKNKKINSFCDDKLLLTDTGISKWKNGVVSYVQYFKDGTFDVRYL	not soluble
MKKVSIIIPFKGQTEAELMLPLSSIYNQIGVDLSQLDIHLVNDGGKTIDLSKFDVLADRLEIHYHEIPNGGPGVARQYGIDNSISEYIMFIDADDVLYYVGALWPFYNASNQGHQMIRASYWEQIAGNPYTYTVHGNGDRKAAYGKWYKRSYIEMLGLRFMPDLPIYEDTYFVGLACELATDTCFLEEKVYMWLANPNSITRTVENKFNYQAHIYARENRYWFEMIRKWKPECLVTDFENYLTNMYLKSQKYPPVDEKAWWEEQHKLITSVSDIFSGWTQELQKQVELEHHHHHH	not soluble
MSLKPRVAVIGSGSIGLLLYAYLKLANWPALLVTNRPEQADHLNKEGLTFVAKSGEHQPISVTATPLSSFSAEEAEVGFITVKSFAVKALLPQLQRKKWDGLVFFQNGMTHLEILRQIPARAICCGIVEIGAKRESDVRVQHTGDGAIWIGDMVGDSKNFDPMWACLHNAGLKAQKVTNWQDKMERKLIANAAINPLTGLFRVKNGALIENQLFSLLLKELVKEACVTLGREREVDEHLAYTRAICDKTANNLSSMYMDLTHHRRTEIESITGYLIKEAAKKGIEIPNTSFVYHAVMGMDEEGRKVREGHHHHHH	soluble
MSTRWYPIYQRGNPQLRVFLPNFWMKLIRPTEEQPPNVVTFSVSMEMTKYDVRNYLEKIYKLPVVDVRTRIAMGETKKDQTYGYITKKDDVKLAYVTLPREESFVFPDFFSEKAEKQAKEEKSLDESKAGFRRFLDRNKKRPGTPGWFSI	not soluble
MAKLITLGEILIEFNALSPGPLRHVSYFEKHVAGSEANYCVAFIKQGNECGIIAKVGDDEFGYNAIEWLRGQGVDVSHMKIDPSAPTGIFFIQRHYPVPLKSESIYYRKGSAGSKLSPEDVDEEYVKSADLVHSSGITLAISSTAKEAVYKAFEIASNRSFDTNIRLKLWSAEEAKREILKLLSKFHLKFLITDTDDSKIILGESDPDKAAKAFSDYAEIIVMKLGPKGAIVYYDGKKYYSSGYQVPVEDVTGAGDALGGTFLSLYYKGFEMEKALDYAIVASTLNVMIRGDQENLPTTKDIETFLREMKK	soluble
MAHHHHHHMGTTASTDSADSPFSVRSVDSSGGGGWRQEDPERFRKYMHLKSQADQWRQRHGHTPGATRGELTKNLIEEVYEEDFESVDHVQSMRLPPMVLKEMKDAVANEAERRCAETEKVMARCLQDKMWTSWKCQKERDALYQCVADRKEDNELLMAYRWKYNLGTFHGELIGRNNMMRRIWKEHFPDRDLPHPWVKDA	not soluble
MGSDKIHHHHHHMNIQQLRYVVAIANNGTFREAASKLFVSQPSLSVSIKDLEAELGFQIFNRTTSGTVLTSQGLVFYEKALEVVKSFDSFEKTFSQADLDQNEFSIASQHYDFLPPLITAFSQQYDGHRVFRIFESTTIQILDEVAQGNSEIGIIYLNVDNQKGLFQRMDKLGLEYVSLIPFTTHIYLSKTHPLANREALYLNDIQGLPAVRFTQERDEYLYYSENFVDTSECPRIYNVSDRATLNGILERTNAFATGSGFLDHRSVNGIKVIPLADHIDNQMIYVKRKDKNLSVAGATFVTILKDYFDKRRKALT	not soluble

Recorded values, source the DeepSol protein solubility set.
